# Test system: U2OS
# method_summary: Multiplex assay against U2OS
# Type: toxicity, cell-based
# condition_details: human, 24 h, 1 µM, compound concentration 1 uM, replicate 1
Each entry below lists one item and its recorded Population Healthy Nuclei (%) value.
Write the number in % without appending the unit.

Answered examples (2):
- CC[C@@H](C)Nc1nc(C)nc2c(-c3ccc(OC)nc3C)c(C)nn12: 69
- CCCCCC(O)/C=C/[C@H]1C(=O)CC(O)C1C/C=C\CCCC(=O)O (some centres undefined): 63

Entry under test: Cl.NCCc1ccc(O)c(O)c1 [DOPAMINE HYDROCHLORIDE] . Its Population Healthy Nuclei (%) was 69

Entry under test: `CC(C)COc1ccc(CNC(=O)N(Cc2ccc(F)cc2)C2CCN(C)CC2)cc1` . Its Population Healthy Nuclei (%) was 67

Entry under test: `CC(/C=C1\SC(=S)N(CCCC(=O)Nc2ccc(C(=O)O)c(O)c2)C1=O)=C\c1ccccc1` . Its Population Healthy Nuclei (%) was 64

###

Each entry below lists one item and its recorded Population Membrane Permeable-Phenotype (%) value.
# Tested on: U2OS
# method_summary: Multiplex assay against U2OS
# Type: toxicity, cell-based
# condition_details: human, 48 h, 1 µM, compound concentration 1 uM, replicate 1
Write the number in % without appending the unit.

Answered examples (5):
* CC(C)COc1ccc(CNC(=O)N(Cc2ccc(F)cc2)C2CCN(C)CC2)cc1 | 6
* CCCCCC(O)/C=C/[C@H]1C(=O)CC(O)C1C/C=C\CCCC(=O)O (stereo not given in full) | 4
* CCc1cc2cc(NS(=O)(=O)c3ccc(C#N)cc3)ccc2n(CC)c1=O | 6
* Br.CS(=O)(=O)Nc1c(O)ccc2c1CCCC2C1=NCCN1 (stereo not given) | 2
* O=C(CCCc1ccccc1)Nc1nc2ccccc2c(=O)s1 | 3

Entry under test: `CCCCC(=O)N(Cc1ccc(-c2ccccc2-c2nnn[nH]2)cc1)[C@H](C(=O)O)C(C)C` . Its Population Membrane Permeable-Phenotype (%) was 5

Entry under test: `COc1cccc2c1c(NS(=O)(=O)c1ccc(Cl)s1)nn2Cc1cccc(CNC(=O)C(C)(C)O)c1` . Its Population Membrane Permeable-Phenotype (%) was 4

Entry under test: COC[C@@H](c1ccc(C(F)(F)F)cc1)N1CCN(C2(C)CCN(C(=O)c3c(C)ncnc3C)CC2)C[C@@H]1C.O=C(O)/C=C\C(=O)O [VICRIVIROC MALEATE] . Its Population Membrane Permeable-Phenotype (%) was 3

###

# System: U2OS
# method_summary: Multiplex assay against U2OS
# Format: toxicity, cell-based
# condition_details: human, 24 h, 10 µM, compound concentration 10 uM, replicate 1
Each entry below lists one item and its recorded Total Cell Count value.

- Br.CS(=O)(=O)Nc1c(O)ccc2c1CCCC2C1=NCCN1 (stereo unspecified): 240
- CC(C)(C)c1cc(NC(=O)Nc2ccc(-c3cn4c(n3)sc3cc(OCCN5CCOCC5)ccc34)cc2)no1 [QUIZARTINIB]: 195
- O=C(CCCc1ccccc1)Nc1nc2ccccc2c(=O)s1: 319
- Cl.N=C(N)NC(=O)Cc1c(Cl)cccc1Cl [GUANFACINE HYDROCHLORIDE]: 326
- C[C@H](N)COC(=O)[C@@H](CCCCN)NC(=O)Cc1c(-c2ccc3ccccc3c2)[nH]c2c1ccc1ccccc12: 337

Consider the additional compound presented here.
Entry under test: `CN1CCN(c2cc(-c3ccccc3)nc(N)n2)CC1` . Its Total Cell Count was 287

###

# System: Fibroblast
# method_summary: Multiplex assay against human fibroblast
# Assay type: toxicity, cell-based
# condition_details: 24 h, 10 µM, compound concentration 10 uM, replicate 2
measured_attribute: Population Fragmented Nuclei (%)
Write the number in % without appending the unit.

* CN1CCN(c2cc(-c3ccccc3)nc(N)n2)CC1 | 33
* CC(C)c1noc(N2CCC(COc3ccc(-c4ccc(S(C)(=O)=O)cc4)nc3)CC2)n1 [GSK-1292263] | 21

Entry under test: `Cc1cccc(NC(=O)CN2CCC(c3ccccn3)CC2)c1.Cl.Cl` . Its Population Fragmented Nuclei (%) was 45

Entry under test: `N#Cc1cc(F)cc(-c2nc(-c3ccc(F)cn3)no2)c1` . Its Population Fragmented Nuclei (%) was 47

Entry under test: Cc1sc2c(c1C)C(c1ccc(Cl)cc1)=N[C@@H](CC(=O)NCCCCCCCCNC(=O)COc1cccc3c1C(=O)N(C1CCC(=O)NC1=O)C3=O)c1nnc(C)n1-2 (stereo partly drawn) . Its Population Fragmented Nuclei (%) was 25

Entry under test: COC[C@@H](c1ccc(C(F)(F)F)cc1)N1CCN(C2(C)CCN(C(=O)c3c(C)ncnc3C)CC2)C[C@@H]1C.O=C(O)/C=C\C(=O)O [VICRIVIROC MALEATE] . Its Population Fragmented Nuclei (%) was 46

Entry under test: `C[C@H](N)COC(=O)[C@@H](CCCCN)NC(=O)Cc1c(-c2ccc3ccccc3c2)[nH]c2c1ccc1ccccc12` . Its Population Fragmented Nuclei (%) was 36

Entry under test: CC(C)COc1ccc(CNC(=O)N(Cc2ccc(F)cc2)C2CCN(C)CC2)cc1 [PIMAVANSERIN] . Its Population Fragmented Nuclei (%) was 27

###

Each entry below lists one item and its recorded Population Tubulin-Different-Phenotype (%) value.
# Test system: U2OS
# method_summary: Multiplex assay against U2OS
# Assay type: toxicity, cell-based
# condition_details: human, 24 h, 1 µM, compound concentration 1 uM, replicate 2
Write the number in % without appending the unit.

Answered examples (3):
• NCCc1cn(S(=O)(=O)c2c(Cl)nc3sccn23)c2ccccc12.O=C(O)C(=O)O = 7
• Cl.N=C(N)NC(=O)Cc1c(Cl)cccc1Cl [GUANFACINE HYDROCHLORIDE] = 5
• COc1cccc2c1c(NS(=O)(=O)c1ccc(Cl)s1)nn2Cc1cccc(CNC(=O)C(C)(C)O)c1 = 6

Entry under test: COC[C@@H](c1ccc(C(F)(F)F)cc1)N1CCN(C2(C)CCN(C(=O)c3c(C)ncnc3C)CC2)C[C@@H]1C.O=C(O)/C=C\C(=O)O [VICRIVIROC MALEATE] . Its Population Tubulin-Different-Phenotype (%) was 10

###

# Test system: Fibroblast
# method_summary: Multiplex assay against human fibroblast
# Type: toxicity, cell-based
# condition_details: 12 h, 10 µM, compound concentration 10 uM, replicate 2
measured_attribute: Population Mitotic Cells (%)
Write the number in % without appending the unit.

Answered examples (3):
- CC(/C=C1\SC(=S)N(CCCC(=O)Nc2ccc(C(=O)O)c(O)c2)C1=O)=C\c1ccccc1: 59
- N#Cc1cc(F)cc(-c2nc(-c3ccc(F)cn3)no2)c1: 72
- O=C1[C@H](Cc2ccc(O)cc2)N2C(=O)CCN(C(=O)NCc3ccccc3)[C@H]2CN1Cc1cccc2ccccc12: 55

Consider the additional compound presented here.
Entry under test: `Cc1noc(-c2ccc(-c3ccc(CC(=O)O)cc3)cc2)c1NC(=O)O[C@H](C)c1ccccc1Cl` . Its Population Mitotic Cells (%) was 70

###

# Test system: Fibroblast
# method_summary: Multiplex assay against human fibroblast
# Assay type: toxicity, cell-based
# condition_details: 24 h, 10 µM, compound concentration 10 uM, replicate 2
measured_attribute: Population Membrane Permeable-Phenotype (%)
State the value, then name its unit.

Answered examples (2):
- O=C(NCCN1CCC(n2c(=O)[nH]c3cc(Cl)ccc32)CC1)c1ccc(F)cc1 [HALOPEMIDE]: 12%
- COC[C@@H](c1ccc(C(F)(F)F)cc1)N1CCN(C2(C)CCN(C(=O)c3c(C)ncnc3C)CC2)C[C@@H]1C.O=C(O)/C=C\C(=O)O [VICRIVIROC MALEATE]: 8%

The reported Fibroblast Population Membrane Permeable-Phenotype (%) of `CCCCC1=NC2(CCCC2)C(=O)N1Cc1ccc(-c2ccccc2-c2nnn[nH]2)cc1` is 8%

The reported Fibroblast Population Membrane Permeable-Phenotype (%) of CCCCCC(O)/C=C/[C@H]1C(=O)CC(O)C1C/C=C\CCCC(=O)O (some centres undefined) is 3%

###

# Test system: HEK-293T
# method_summary: Multiplex assay against HEK293T
# Assay type: toxicity, cell-based
# condition_details: human, 48 h, 10 µM, compound concentration 10 uM, replicate 1
measured_attribute: Population Membrane Permeable-Phenotype (%)
Write the number in % without appending the unit.

Answered examples (5):
- Cc1noc(-c2ccc(-c3ccc(CC(=O)O)cc3)cc2)c1NC(=O)O[C@H](C)c1ccccc1Cl: 0
- CCCCCC(O)/C=C/[C@H]1C(=O)CC(O)C1C/C=C\CCCC(=O)O (some centres undefined): 0
- Cc1cnc(-c2cc(N3CCN(C(=O)CCS(C)(=O)=O)CC3)ncc2Cl)c(C)c1: 0
- CC(C)COc1ccc(CNC(=O)N(Cc2ccc(F)cc2)C2CCN(C)CC2)cc1 [PIMAVANSERIN]: 0
- Cc1c(CC(=O)O)c2cccnc2n1Cc1ccc(S(C)(=O)=O)cc1C(F)(F)F [FEVIPIPRANT]: 0

Entry under test: `Cc1onc(-c2ccccc2Cl)c1C(=O)N(C)c1ccc(Cl)cc1` . Its Population Membrane Permeable-Phenotype (%) was 1

Entry under test: `NCCc1cn(S(=O)(=O)c2c(Cl)nc3sccn23)c2ccccc12.O=C(O)C(=O)O` . Its Population Membrane Permeable-Phenotype (%) was 11

Entry under test: `N#Cc1cc(F)cc(-c2nc(-c3ccc(F)cn3)no2)c1` . Its Population Membrane Permeable-Phenotype (%) was 1

Entry under test: CC(C)c1noc(N2CCC(COc3ccc(-c4ccc(S(C)(=O)=O)cc4)nc3)CC2)n1 [GSK-1292263] . Its Population Membrane Permeable-Phenotype (%) was 0
